Data provenance: the RNAGym collection of RNA variant scans (doi:10.7554/elife.80360)

B1: CPEB3 Ribozyme (parent)
chain: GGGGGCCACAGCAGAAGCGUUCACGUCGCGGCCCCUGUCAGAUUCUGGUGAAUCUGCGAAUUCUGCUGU

# Variants of: B1
# experiment description: self-cleavage, relative activity (ratio to wild type); higher = more cleavage; co-transcriptional
Hi there, I'd appreciate the recorded self-cleavage for every entry that follows.
Give bare numbers.

GGGGGCCACAGCAGAUGCGUUCACGUCGCGGCCCCUGUCAGAUUCUGGUGAUUCUGCGAAUUCUGCUGU [A16U A52U]: 0.801
GGGGGCCACAGCAAAAGCGCUCACGUCGCGGCCCCUGUCAGAUUCUGGUGAAUCUGCGAAUUCUGCUGU [G14A U20C]: 0.181
GGGGGCCACAGCAGAAGCGUUCACGUCGCGGCCCCUGUCAGAUUCGGGUGAAUAUGCGAAUUCUGCUGU [U46G C54A]: 0.845
GGGGGCCACAGCAAAAGCGUUCACGUCUCGGCCCCUGUCAGAUUCUGGUGAAUCUGCGAAUUCUGCUGU [G14A G28U]: 0.112
GAGGGCCACAGCAGAAGCGUUCACGUCGCGGCCCCUGUCAGAUACUGGUGAAUCUGCGAAUUCUGCUGU [G2A U44A]: 0.111
CGGGGCCACAGCAGAAGGGUUCACGUCGCGGCCCCUGUCAGAUUCUGGUGAAUCUGCGAAUUCUGCUGU [G1C C18G]: 0.0551
GGGCGCCACAGCAGAAGCGUUCACGCCGCGGCCCCUGUCAGAUUCUGGUGAAUCUGCGAAUUCUGCUGU [G4C U26C]: 0.472
GGGGGCCACACCAGAAGCGUUCACGUCGCGGCCCCUGUCAGAUUCUGGUCAAUCUGCGAAUUCUGCUGU [G11C G50C]: 0.748

Provide the reported self-cleavage of each entry below, same order.
1. GGGUGCCACAGCAGAAGCGUUCACGCCGCGGCCCCUGUCAGAUUCUGGUGAAUCUGCGAAUUCUGCUGU [G4U U26C]
2. GGGGGCCACAGCAGAAGCGUUCACGUCGCGGCCCCUGUCACAUUCUGGGGAAUCUGCGAAUUCUGCUGU [G41C U49G]

result:
0.641
0.899
